- Tested on: transactivating tegument protein VP16 (Human herpesvirus 1), Gal4-VP16 luciferase reporter
- run_description: VP16 transactivation inhibitors, counter-screen for SRC3 inhibitor project, cell-based, luminescence, high throughput (AID 588794)
- condition_details: mammalian cells, VP16-driven luciferase reporter luminescence; at 3.6 µM
The source made the active and inactive calls. Rule as the data show it: active = inhibition above about 30%; inactive = the rest.
// classify into active, inactive

Some entries whose results are on file:
molecule | category
Cc1ccc(S(=O)(=O)N(C)C)cc1NC(=O)c1cncc(Br)c1 | inactive
c1ccc(CNc2c3ccccc3nc3ccccc23)cc1 | active
CC1(Cc2ccc(F)cc2)C(=O)Nc2ccc(-c3cccnc3)cc21 (centres undefined) | active
CCN(CC)c1ccc(/C=N/NC(=O)c2cnccn2)c(O)c1 | active
CCCCCCCCCCn1ccc(=N)cc1 | active

(Q) How did this test come out for O=C(/C=C/c1ccc([N+](=O)[O-])cc1)c1ccccc(=O)c1O ?
(A) active

(Q) How did this test come out for O=C(CCl)N(c1ccccc1)C1CCCCC1 ?
(A) inactive

(Q) How did this test come out for O=C(NN=Cc1cccc(O)c1O)c1ccccc1 ?
(A) inactive

(Q) How did this test come out for Cc1ccc(-c2csc(NC(=O)c3cccc(C)c3)c2C(=O)O)cc1 ?
(A) inactive

(Q) How did this test come out for COc1cccc(/C=N/NC(=O)c2ccc(-c3ccccc3)cc2)c1O ?
(A) active

----------
- run_description: VP16 transactivation reporter inhibitors, counter-screen for LRH-1 inverse agonist project, cell-based, luminescence, high throughput (AID 651615)
- condition_details: Gal4-VP16 luciferase reporter cells, at 3.6 µM, stronger effect = higher value
Activity calls are given as the source filed them. Cut-off read from the data, not from the text of the source: active = inhibition above about 33%; inactive = the rest.
measure: inhibition

Consider the reported inhibition for these compounds:
structure_notation | inhibition
Cc1ccc(C(C)C)c(OCc2ccc(C(=O)N/N=C/c3ccc(O)cc3O)cc2)c1 | 71.2% (active)
CCc1ccccc1NC(=O)CSc1nnc([C@@H]2CCCN2C(=O)OC(C)(C)C)o1 | -8.78% (inactive)

Could you tell me inhibition for each of these compounds? They are listed below.
1. COC(=O)c1ccc(NC(=O)CN2C(=O)CNC2=O)cc1
2. CCNc1nc(NC(C)(C)C)nc(SC(C(C)=O)C(C)=O)n1
3. C[n+]1c2n(c3ccccc31)N=C(c1cc(C(C)(C)C)c(O)c(C(C)(C)C)c1)CS2
4. CCN1/C(=C/c2ccc3cc(C)ccc3[n+]2CC)Sc2cc(C)ccc21
5. Cc1nnc(SCC(=O)Nc2sc3c(c2C(N)=O)CCCC3)[nH]c1=O

(A)
1: -6.93% (inactive); 2: 49.4% (active); 3: 90% (active); 4: 83.3% (active); 5: -3.51% (inactive)

----------
- run_description: StAR promoter reporter inhibitors, counter-screen for LRH-1 inverse agonist project, cell-based, luminescence, high throughput (AID 651611)
- condition_details: StAR promoter luciferase reporter counterscreen, at 3.6 µM, stronger effect = higher value
measure: inhibition (%)
Numbers only, in %.

molecule | endpoint_unit | value
Cc1ccc2nsnc2c1NC(=O)c1ccc([N+](=O)[O-])o1 | % | 14.4
O=C(Nc1ccc(S(=O)(=O)Nc2ccccc2)cc1)c1ccc(CN2CCOCC2)cc1 | % | 21.8

Could you tell me inhibition for each of these molecules? They are listed below.
1. NC(=O)c1ccc(NC(=O)COC(=O)C2COc3ccccc3O2)cc1 (stereo unspecified)
2. O=C(CC(O)(C(F)(F)F)C(F)(F)F)Nc1ccc(Cl)c(Cl)c1
3. C=C(C(=O)c1ccccc1)C(NC(C)(C)C)c1ccccc1 (stereo unspecified)
4. CC(C)CC(=NNC(=O)c1ccncc1)c1cc(Cl)ccc1O

(A)
1. 21.9
2. 74.3
3. 58.5
4. 88.6

----------
- Tested on: transactivating tegument protein VP16 (Human herpesvirus 1), Gal4-VP16 luciferase reporter
- run_description: VP16 transactivation inhibitors, counter-screen for SRC3 inhibitor project, cell-based, luminescence, high throughput (AID 588794)
- condition_details: mammalian cells, VP16-driven luciferase reporter luminescence; at 3.6 µM; stronger effect = higher value
measure: inhibition (%)
Give bare numbers, in %.

Consider the reported inhibition for these compounds:
compound | value
O=C(Nc1ccc2c(c1)OCCO2)C(c1cc2ccccc2o1)N1CCN(c2ccc(C(F)(F)F)cn2)CC1 (stereo not given) | 6.65
CCOc1ccc(/C=C2\SC(=S)N(CCCC(=O)NCCCN3CCOCC3)C2=O)cc1 | 10.6
CC(C)Nc1nc(Cl)nc(NNC(=O)C(C)Oc2ccccc2)n1 (stereo not given) | 4.03
CC[n+]1cc(C)ccc1/C=C/c1ccc(N(C)C)cc1 | 58.8
N=c1c2c(n(Cc3cccc(Cl)c3)c3c1CCC3)CCCC2 | 65.2
C=CCN(CC=C)c1ncnc2[nH]ncc12 | 50.9
NC(=O)CC(NC(=O)c1cccc(Br)c1)c1ccc(NC2CCN(Cc3ccccc3)CC2)c([N+](=O)[O-])c1 (stereo not given) | -4.06
Nc1ncnc(Sc2ccc(Cl)cc2)c1[N+](=O)[O-] | 9.09

Could you tell me inhibition for each of these compounds? They are listed below.
1. c1ccc2c(c1)OCC(CNc1ncnc3sccc13)O2 (stereo not given)
2. COc1ccc(NC(=O)c2sc(=O)n(Cc3ccc(F)c(Cl)c3)c2C)cc1OC

(A)
37.9
61.6

----------
- Tested on: transactivating tegument protein VP16 (Human herpesvirus 1), Gal4-VP16 luciferase reporter
- run_description: VP16 transactivation inhibitors, counter-screen for SRC3 inhibitor project, cell-based, luminescence, high throughput (AID 588794)
- condition_details: mammalian cells, VP16-driven luciferase reporter luminescence; at 3.6 µM; stronger effect = higher value
measure: inhibition (%)
Give bare numbers, in %.

Consider the reported inhibition for these compounds:
compound | measure | value
CC1CC(C)C[N+](=C2C=C(N3CCCC3)CC(C)(C)C2)C1 (stereo not drawn) | inhibition | 66.7
CN1CC(=O)N2C(c3ccc(Cl)cc3)c3[nH]c4ccccc4c3C[C@H]2C1=O (stereo partly drawn) | inhibition | 29.5
Cc1ccc(NC2=C/C(=N/S(=O)(=O)c3cccs3)c3ccccc3C2=O)cc1 | inhibition | 82
CCCCCn1c(=O)[nH]c2cc(C(=O)N3CCN(c4ccc(C(C)=O)cc4)CC3)ccc2c1=O | inhibition | 21.7
Cc1ccc(OCC(=O)c2cc(C)n(Cc3cccs3)c2C)c([N+](=O)[O-])n1 | inhibition | 8.55
COc1cc(C(=O)N/N=C/c2coc3ccc(Cl)cc3c2=O)ccc1O | inhibition | 15.9
O=C1C(F)=CC(COC(c2ccccc2)(c2ccccc2)c2ccccc2)OC1n1cc(F)c(=O)[nH]c1=O (stereo not drawn) | inhibition | 60.3
COc1ccc(Cl)cc1NC(=O)CN(C)CC(=O)Nc1c(C)n(C)n(-c2ccccc2)c1=O | inhibition | 4.85
CC[n+]1c(/C=C/N(C)c2ccccc2)oc2ccccc21 | inhibition | 55.8
CCc1nc(Nc2ccc3nccnc3c2)c2oc3ccccc3c2n1 | inhibition | 13.6

Could you tell me inhibition for each of these compounds? They are listed below.
1. CC(=O)Nc1ccc(SCC(=O)c2cc(C)n(-c3ccccc3F)c2C)cc1
2. C=CC[n+]1c(-c2ccc(C)cc2)csc1Nc1ccc(NC(C)=O)cc1
3. Cc1nn(Cc2ccc(Cl)cc2)c(C)c1NC(=O)c1cc(-c2ccc3c(c2)OCO3)on1

(A)
9.76
-12.8
50.3

Could you tell me inhibition for each of these compounds? They are listed below.
1. CCOc1cc(CNc2ccc3c(c2)OCCO3)cc(Br)c1OCC
2. Cc1ncc(CO)c(/C=N/NC(=O)c2cc3c(s2)CCCC3)c1O
3. COc1ccc2c(c1)-c1c(ssc1=S)C(C)(C)N2
4. N#Cc1cc2c(nc1SCC(=O)N1CCOCC1)CCCCC2
5. COc1cccc(CNC(=O)c2cc3c(c(-c4cccc(-c5cccc(C#N)c5)c4)n2)[C@H](CCO)N(S(=O)C(C)(C)C)C3)c1 (stereo partly drawn)
6. O=C(NCCc1ccccn1)C(F)(F)C(F)(F)C(F)(F)C(F)(F)C(F)(F)C(F)(F)C(F)(F)C(F)F
7. Cc1ccc(-n2c(-c3ccc(Br)cc3)c[n+]3c2CCc2ccc4cccnc4c2-3)cc1
8. CC[n+]1c(C=C2C=C(C)OC(C)=C2)sc2ccccc21

(A)
20.9
27.7
54.6
21.5
0.36
-4.16
86.1
67.2

Could you tell me inhibition for each of these compounds? They are listed below.
1. O=C1NC(=O)C(c2ccc(F)cc2)N1 (stereo not drawn)
2. O=C(NC1CCCC1)c1cc(COc2ccc3ncccc3c2)on1
3. COc1ccc(O)c(/C=N/NC(=O)c2c(C)nnn2-c2nonc2N)c1
4. N=c1c2c(n(Cc3ccccc3)c3c1CCC3)CCC2
5. OCC1OC(n2ccc3c(NO)ncnc32)C(O)C1O (stereo not drawn)
6. O=C(N/N=C/c1ccccc1O)c1ccncc1

(A)
[-3.31, 43.3, 19.7, 44.1, 88.2, 13.7]

Could you tell me inhibition for each of these compounds? They are listed below.
1. COc1ccc(Oc2ccc(/C=C/C(=O)c3ccc(O)cc3)cc2[N+](=O)[O-])cc1
2. COc1cccc(-c2csc3ncnc(Sc4nnnn4C)c23)c1
3. COc1cc(/C=C2\SC(=S)N(CCC(=O)NC3CCCC3)C2=O)cc(OC)c1OC
4. CCOC(=O)c1c(C)nn(-c2ccc(NC(=O)/C=C/C(=O)O)cc2)c1C
5. CCN1CCS/C1=C\C=C\C1=[N+](CC)CCS1
6. S=C(NCCCc1cnc[nH]1)NCCCN(Cc1ccc(Cl)cc1)c1ccc(Br)cn1
7. Cc1cc(/C=C2\Cc3ccccc3C2=O)c(C)n1-c1ccccc1
8. COc1cccc(/C=C/C(=O)OCC(=O)N2CCCC2)c1OC

(A)
1. -5.56
2. 21.9
3. 9.3
4. -2.88
5. 44.8
6. 57.4
7. 18.6
8. -16

Could you tell me inhibition for each of these compounds? They are listed below.
1. CC(C)(C)[C@H]1C=C(C(=O)Nc2ccccc2)O[C@@H](OCCCCO)C1
2. NC(=O)c1sc2nc3c(c(-c4ccccc4)c2c1N)CCC3
3. Cc1ccccc1-n1nnnc1Sc1nnnn1-c1ccccc1
4. CCCN(CCC)c1nc(-c2ccccn2)nc2ccccc12
5. CCn1cc(C(=O)NCc2ccccn2)c(=O)c2cc(F)c(N3CCN(C)CC3)cc21
6. CCOCc1c(C(=O)NC2=Nc3ccccc3NC(CC)=C2C(=O)OCC)oc2ccccc12
7. CC[C@H](C)Cc1cn([C@@H](CCCCNC(=O)OC(C)(C)C)C(=O)NCCCCCCCCCCC(=O)N2CCN(C(=O)OC(C)(C)C)CC2)nn1

(A)
-16.4
54.8
7.79
35.2
3.18
-11.3
22.5

(Q) Dear colleague, please send me the reported inhibition for COCCNc1nc(Oc2cncc(Cl)c2)c2sccc2n1 when you can.
(A) 29.7
